Data provenance is patent US5292901A.

# Tested on: liver injury induced by D-galactosamine
# ASSAY EXPLANATION: Experimental Example 1b: effect on liver injury induced by D-galactosamine in rats (group I-b)
# Assay type: in vivo, male Fischer (F344) rats
# CONDITION CONTEXT: Rattus norvegicus, po, 48 h; Table 1b; D-galactosamine 400 mg/kg; compound 100 mg/kg in 0.5% methylcellulose; read-out: Inhibition ratio (%) HPT
Listing: inhibition in vivo at 100 mg/kg of selected compounds
Reply with just the number (in %).

Take a look at these entries with their results.
O=C(O)CSCCc1ccc2c(c1)OCO2 [Compound 8] :: 97
O=C(O)CNC(=O)CSCCc1ccc2c(c1)OCO2 [Compound 23] :: 92
CC(CC(=O)O)SCCc1ccc2c(c1)OCO2 (centres unmarked) [Compound 13] :: 99
O=C(O)CCSCCc1ccc2c(c1)OCO2 [Compound 9] :: 99
CS(=O)(=O)CCc1ccc2c(c1)OCO2 [Compound 28] :: 98

Q) Entry CN(C)C(=O)CCSCCc1ccc2c(c1)OCO2 [Compound 19] : reported inhibition in vivo at 100 mg/kg = ?
A) 90

Q) Field entry: CCOC(=O)CSCCc1ccc2c(c1)OCO2 [Compound 25]
A) 61

Q) Field entry: NC(=O)CCSCCc1ccc2c(c1)OCO2 [Compound 17]
A) 99

Q) Field entry: OCCSCCc1ccc2c(c1)OCO2 [Compound 3]
A) 94

Q) Field entry: [O-][S+](CCO)CCc1ccc2c(c1)OCO2 (centres unmarked) [Compound 27]
A) 65

Q) Field entry: O=C(O)CCCSCCc1ccc2c(c1)OCO2 [Compound 10]
A) 99

* * *

Listing: inhibition in vivo at 100 mg/kg of selected compounds
# System: liver injury induced by D-galactosamine
# ASSAY EXPLANATION: Experimental Example 1b: effect on liver injury induced by D-galactosamine in rats (group I-b)
# Assay type: in vivo, male Fischer (F344) rats
# CONDITION CONTEXT: Rattus norvegicus, po, 48 h; Table 1b; D-galactosamine 400 mg/kg; compound 100 mg/kg in 0.5% methylcellulose; read-out: Inhibition ratio (%) GPT
Reply with just the number (in %).

Q) Entry CCOC(=O)CSCCc1ccc2c(c1)OCO2 [Compound 25] : reported inhibition in vivo at 100 mg/kg = ?
A) 34

Q) Field entry: CN(C)C(=O)CCSCCc1ccc2c(c1)OCO2 [Compound 19]
A) 69

Q) Field entry: O=C(O)CCSCCc1ccc2c(c1)OCO2 [Compound 9]
A) 100

Q) Field entry: O=C(O)CCCCSCCc1ccc2c(c1)OCO2 [Compound 11]
A) 96

Q) Field entry: NC(=O)CCSCCc1ccc2c(c1)OCO2 [Compound 17]
A) 97

Q) Field entry: CC(CC(=O)O)SCCc1ccc2c(c1)OCO2 (stereo not drawn) [Compound 13]
A) 99

* * *

Listing: inhibition in vivo at 100 mg/kg of selected compounds
# Test system: liver injury induced by D-galactosamine
# ASSAY EXPLANATION: Experimental Example 1b: effect on liver injury induced by D-galactosamine in rats (group I-b)
# Format: in vivo, male Fischer (F344) rats
# CONDITION CONTEXT: Rattus norvegicus, po, 48 h; Table 1b; D-galactosamine 400 mg/kg; compound 100 mg/kg in 0.5% methylcellulose; read-out: Inhibition ratio (%) GPT
Please append the unit to your numeric answer.

Take a look at these entries with their results.
O=C(O)CSCCc1ccc2c(c1)OCO2 [Compound 8] :: 97%
COCCSCCc1ccc2c(c1)OCO2 [Compound 6] :: 79%
CS(=O)(=O)CCc1ccc2c(c1)OCO2 [Compound 28] :: 95%
OCCSCCc1ccc2c(c1)OCO2 [Compound 3] :: 97%

Q) Entry [O-][S+](CCO)CCc1ccc2c(c1)OCO2 (centres unmarked) [Compound 27] : reported inhibition in vivo at 100 mg/kg = ?
A) 54%

Q) Field entry: C[S+]([O-])CCc1ccc2c(c1)OCO2 (centres unmarked) [Compound 26]
A) 100%

Q) Field entry: SCCc1ccc2c(c1)OCO2 [Compound 1, 2-(1,3-Benzodioxol-5-yl)ethanethiol]
A) 91%

* * *

Listing: inhibition in vivo at 100 mg/kg of selected compounds
# System: liver injury induced by D-galactosamine
# ASSAY EXPLANATION: Experimental Example 1b: effect on liver injury induced by D-galactosamine in rats (group I-b)
# Assay type: in vivo, male Fischer (F344) rats
# CONDITION CONTEXT: Rattus norvegicus, po, 48 h; Table 1b; D-galactosamine 400 mg/kg; compound 100 mg/kg in 0.5% methylcellulose; read-out: Inhibition ratio (%) HPT
Reply with just the number (in %).

OCCCSCCc1ccc2c(c1)OCO2 [Compound 4] :: 98
COCCSCCc1ccc2c(c1)OCO2 [Compound 6] :: 93
SCCc1ccc2c(c1)OCO2 [Compound 1, 2-(1,3-Benzodioxol-5-yl)ethanethiol] :: 96

Q) Entry C[S+]([O-])CCc1ccc2c(c1)OCO2 (stereo not drawn) [Compound 26] : reported inhibition in vivo at 100 mg/kg = ?
A) 100

Q) Field entry: O=C(O)CCCCSCCc1ccc2c(c1)OCO2 [Compound 11]
A) 98

Q) Field entry: NC(=O)CSCCc1ccc2c(c1)OCO2 [Compound 16]
A) 94

* * *

Listing: inhibition in vivo at 100 mg/kg of selected compounds
# System: liver injury induced by D-galactosamine
# ASSAY EXPLANATION: Experimental Example 1b: effect on liver injury induced by D-galactosamine in rats (group I-b)
# Type: in vivo, male Fischer (F344) rats
# CONDITION CONTEXT: Rattus norvegicus, po, 48 h; Table 1b; D-galactosamine 400 mg/kg; compound 100 mg/kg in 0.5% methylcellulose; read-out: Inhibition ratio (%) GPT
Reply with just the number (in %).

OCCCSCCc1ccc2c(c1)OCO2 :: 98
O=C(O)CNC(=O)CSCCc1ccc2c(c1)OCO2 :: 77
NC(=O)CSCCc1ccc2c(c1)OCO2 :: 86

Q) Entry "O=C(O)CCCSCCc1ccc2c(c1)OCO2" : reported inhibition in vivo at 100 mg/kg = ?
A) 89
